Sourced from patent US20150110794A1

# SYSTEM_NAME: T1, AD4 polypeptide (cloned AD4 fragment of CMV AD169 envelope glycoprotein B) (human cytomegalovirus strain AD169, UniProt P06473 112-438)
# T1 construct: also called antigenic domain 4
# PROCEDURE_DETAILS: SPR (Biacore T200), antibody captured on anti-human IgG CM5 chip, AD4 polypeptide as analyte, 1:1 model
MEASURE_NAME: kon (M⁻¹ s⁻¹)
The reply should contain only the number, in M⁻¹ s⁻¹.

BINDER	MEASURE_NAME	UNIT_OF_MEASURE	MEASURED
C3 (antibody, V domains shown, Human IgG, transiently expressed in HEK293) VH: QVQLQESGPGLVKPLETLSLTCTVSGGSISSGSFYWTWIRQHPGKGLEWIGYIHSSGTTYYNPSLKSRLNISRDTSKNQFTLKLSSVTAADTAVYYCAKEIIQWPRRWFDPWGQGTLVTVSS VL: QSMLTQPPSVSAAPGQKVIISCSGSSSNIGNNYVNWYQQLPGTAPKLLIYDNDKRPSGIPDRFSGSKSGTSATLGITGLQTGDEADYYCGTWDSTLTAGVFGGGTKLTVLG	kon	M⁻¹ s⁻¹	1.24e+06

Query: Given C11 (antibody, V domains shown, Human IgG, transiently expressed in HEK293) VH: EVQLLESGGGLIQPGGSLRLSCVASGFTFTRHAINWVRQAPGKGLEWVSAISGSGSSTYYADSVKGRFTISRDNAKNTLYLQMNRLRVEDTAVYYCAKDKDYGMVAATPDAFDIWGQGTMVTVSS VL: QSVLTQPPSVSAAPGQKVTISCSGSRSNIAKNYVYWYQQLPGTAPKLLIYDTNKRPSGIPDRFSGSKSGTSATLAITGLQTGDEADYYCGTWDSSLKTAIFFGGGTTVTVLG , state its recorded kon.
Result: 192000
